pIC50 overview
molecular target: Voltage-gated inwardly rectifying potassium channel KCNH2 (Homo sapiens, UniProt Q12809); experiment: Inhibition of human ERG channel expressed in CHO cells by patch clamp assay
Sequence (Q12809 whole entry): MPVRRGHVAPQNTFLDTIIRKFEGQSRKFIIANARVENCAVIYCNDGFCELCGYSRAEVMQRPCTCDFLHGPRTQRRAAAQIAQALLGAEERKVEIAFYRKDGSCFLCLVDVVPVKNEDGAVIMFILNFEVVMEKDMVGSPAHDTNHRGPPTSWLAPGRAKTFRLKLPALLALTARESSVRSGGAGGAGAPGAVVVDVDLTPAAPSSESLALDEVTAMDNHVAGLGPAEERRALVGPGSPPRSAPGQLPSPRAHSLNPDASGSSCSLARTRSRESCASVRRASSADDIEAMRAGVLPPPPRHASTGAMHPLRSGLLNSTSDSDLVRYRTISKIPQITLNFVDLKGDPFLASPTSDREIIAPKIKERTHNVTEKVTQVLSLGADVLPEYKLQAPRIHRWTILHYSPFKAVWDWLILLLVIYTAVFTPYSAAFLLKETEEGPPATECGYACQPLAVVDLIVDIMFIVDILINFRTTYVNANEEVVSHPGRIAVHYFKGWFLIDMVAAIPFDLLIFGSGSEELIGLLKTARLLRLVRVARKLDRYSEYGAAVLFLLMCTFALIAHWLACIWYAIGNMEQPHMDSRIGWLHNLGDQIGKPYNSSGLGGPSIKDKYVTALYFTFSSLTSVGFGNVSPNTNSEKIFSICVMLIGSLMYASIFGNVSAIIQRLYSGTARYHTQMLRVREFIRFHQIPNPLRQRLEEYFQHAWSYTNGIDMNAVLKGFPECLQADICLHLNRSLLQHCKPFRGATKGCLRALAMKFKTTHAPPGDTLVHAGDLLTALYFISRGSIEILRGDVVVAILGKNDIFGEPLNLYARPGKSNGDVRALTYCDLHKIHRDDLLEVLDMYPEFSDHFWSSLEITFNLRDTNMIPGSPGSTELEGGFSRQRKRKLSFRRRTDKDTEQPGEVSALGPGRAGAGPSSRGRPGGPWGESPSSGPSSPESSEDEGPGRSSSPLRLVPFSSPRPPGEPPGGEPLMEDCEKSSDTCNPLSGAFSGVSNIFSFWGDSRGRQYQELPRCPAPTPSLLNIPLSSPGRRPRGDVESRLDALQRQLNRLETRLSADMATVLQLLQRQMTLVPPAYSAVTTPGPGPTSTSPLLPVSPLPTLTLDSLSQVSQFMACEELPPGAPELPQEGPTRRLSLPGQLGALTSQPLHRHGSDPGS
pIC50 (log units): -log10 of the concentration in mol/L.

Consider the worked cases shown below.
1. CCOC(=O)N1CCN(Cc2noc(-c3cc(Cl)ccc3F)n2)CC1 :: 4.51
2. c1ccc(-c2noc(CN3CCN(Cc4nc5ccccc5s4)CC3)n2)cc1 :: 4.89

Look up pIC50: "c1ccc(CN2CCN(Cc3nnc(-c4ccccc4)o3)CC2)cc1"
4.56

----------
test: Dissociation constant, pKa of the compound; format: physicochemical
Cut-off 7 on pKa, inclusive. At or above means t; below means f.

Example results:
1. c1ccc(-c2noc(CN3CCN(Cc4nc5ccccc5s4)CC3)n2)cc1 :: f
2. c1ccc(CN2CCN(Cc3nnc(-c4ccccc4)o3)CC2)cc1 :: f

Form field: pKa at least 7? Entry: "CCOC(=O)N1CCN(Cc2nc(-c3cccc(Cl)c3)no2)CC1"
f

Continue with c1cncc(-c2ccc(-c3noc(C4CN5CCC4CC5)n3)o2)c1 (stereo unspecified)
t

Continue with "C[C@@H](Oc1nnc(-c2ccncc2)n1C)c1nnc(-c2cccc(Cl)c2)o1"
f

Continue with "CCOC(=O)N1CCN(Cc2noc(-c3cc(Cl)ccc3F)n2)CC1"
f
